Entry source: paper PMC6294498

# tested_system: T1, CstF-64 RRM (Homo sapiens, UniProt P33240 1-107)
# T1 sequence: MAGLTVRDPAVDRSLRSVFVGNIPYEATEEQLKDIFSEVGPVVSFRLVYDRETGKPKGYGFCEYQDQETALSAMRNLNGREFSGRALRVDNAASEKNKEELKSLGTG
# experiment_description: NMR (1H-15N HSQC titration); 10 mM phosphate pH 6.0, 2 mM TCEP, 30 C; 15N-labeled protein titrated with unlabeled RNA
# recorded_conditions: protein: recombinant; tags: His6-TEV, removed by TEV; label: none; single strand
pKd: −log10 of the molar value.

{"binder": "AUUUUAUGUUUCAGGU (ssRNA) [SVL RNA]", "pKd": 6.15}
